Target: human CXCR4 (human, UniProt P61073 1-352)
Sequence (P61073 whole entry): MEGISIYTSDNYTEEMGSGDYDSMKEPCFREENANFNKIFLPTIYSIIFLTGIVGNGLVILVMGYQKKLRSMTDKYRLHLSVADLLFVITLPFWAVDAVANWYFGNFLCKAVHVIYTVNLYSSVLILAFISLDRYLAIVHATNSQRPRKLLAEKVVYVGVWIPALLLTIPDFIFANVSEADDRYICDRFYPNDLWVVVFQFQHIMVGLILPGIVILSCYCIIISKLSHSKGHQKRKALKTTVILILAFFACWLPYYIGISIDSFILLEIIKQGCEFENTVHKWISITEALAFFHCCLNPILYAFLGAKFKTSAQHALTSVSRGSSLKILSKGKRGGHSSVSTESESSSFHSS
Assay: cell-based or functional assay

| binder | cAMP inhibition IC50 |
| --- | --- |
| AM4-1121 (designed binder) LQVDIVPSQGEISVGESKFFLCQVAGSKSGIRISWFSPNGEKLTPNQQRISVVWNDDSSSTLTIYNANIDDAGIYKCVVYRTGGYRHRYLRLGEATVNVKIFQ | 125 nM |
| AM4-746 (designed binder) LQVDIVPSQGEISVGESKFFLCQVAGSKSNIRISWFSPNGEKLTPNQQRISVVWNDDSSSTLTIYNANIDDAGIYKCVVYRTGGYRHRYLKLGEATVNVKIFQ | 115 nM |
| 21H5 control i-body (designed binder, Control i-body used as isotype control; also called negative control i-body; isotype control i-body) LQVDIVPSQGEISVGESKFFLCQVAGDAKDKDISWFSPNGEKLTPNQQRISVVWNDDSSSTLTIYNANIDDAGIYKCVVTGSDAMSNYSYPISESEATVNVKIFQ | > 10000 nM |
| AM3-523 (designed binder) LQVDIVPSQGEISVGESKFFLCQVAGSGSHMRISWFSPNGEKLTPNQQRISVVWNDDSSSTLTIYNANIDDAGIYKCVVWRVGGYRHRALVLGEATVNVKIFQ | 225 nM |
